Values were extracted from the supplement of paper PMC7877785.

Measured self-splicing fitness (ln) by item
- Method notes: self-splicing fitness, log relative to wild type (ln ratio); higher = more splicing; Tetrahymena group I intron in knt gene, E. coli kanamycin selection, DiMSum; sequences stand for … in CUCUCU…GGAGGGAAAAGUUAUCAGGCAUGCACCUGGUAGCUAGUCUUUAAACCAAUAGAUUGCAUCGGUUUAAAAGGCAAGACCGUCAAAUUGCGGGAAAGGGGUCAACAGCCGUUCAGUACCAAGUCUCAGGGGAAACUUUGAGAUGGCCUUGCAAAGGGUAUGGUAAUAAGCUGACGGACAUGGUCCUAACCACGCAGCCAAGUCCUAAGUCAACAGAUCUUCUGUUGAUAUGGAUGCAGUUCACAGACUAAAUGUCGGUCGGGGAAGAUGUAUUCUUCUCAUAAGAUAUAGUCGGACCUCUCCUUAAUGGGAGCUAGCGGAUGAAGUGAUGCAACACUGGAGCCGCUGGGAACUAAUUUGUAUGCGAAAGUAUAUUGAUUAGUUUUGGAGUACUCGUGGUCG;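 note: selection with 25 µg/mL kanamycin versus none on LB agar overnight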
- Test conditions: 37 °C

The cases that follow already have their self-splicing fitness (ln) on record.
# self-splicing fitness (ln) (sequence: GCGCAGCAAUAUUACGAAUU ) is -0.932

# self-splicing fitness (ln) (sequence: UAGCAGCAAUAUUACGCUGU ) is -3.42

# self-splicing fitness (ln) (sequence: CGGUAGCAAUAUUACGUCAU ) is -2.56

---
# self-splicing fitness (ln) (sequence: CUGCAGCAAUAUUACGUUAU ) is -3.07

====

- Method notes: self-splicing fitness, log relative to wild type (ln ratio); higher = more splicing; Tetrahymena group I intron in knt gene, E. coli kanamycin selection, DiMSum; sequences stand for … in CUCUCU…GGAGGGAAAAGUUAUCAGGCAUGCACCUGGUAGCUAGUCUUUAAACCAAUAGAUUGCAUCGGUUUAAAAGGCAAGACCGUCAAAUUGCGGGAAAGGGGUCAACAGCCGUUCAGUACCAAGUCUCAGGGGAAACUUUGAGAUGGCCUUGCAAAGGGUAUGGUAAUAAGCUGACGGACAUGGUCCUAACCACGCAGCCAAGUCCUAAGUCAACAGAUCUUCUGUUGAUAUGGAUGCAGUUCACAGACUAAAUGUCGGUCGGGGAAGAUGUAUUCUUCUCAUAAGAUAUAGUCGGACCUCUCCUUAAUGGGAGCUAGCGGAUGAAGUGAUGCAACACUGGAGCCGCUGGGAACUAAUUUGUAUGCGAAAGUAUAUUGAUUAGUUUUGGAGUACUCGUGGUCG
- Test conditions: 37 °C
Measured endpoint: self-splicing fitness (ln)
Number only, no unit.

The cases that follow already have their self-splicing fitness (ln) on record.
# self-splicing fitness (ln) (sequence: UGAGAGCAAUAUUACGUAUG ) is -1.66

# self-splicing fitness (ln) (sequence: UGAUAGCAAUAUUACGCGAG ) is -0.803

# self-splicing fitness (ln) (sequence: UUCCAGCAAUAUUACGCACG ) is -0.884

# self-splicing fitness (ln) (sequence: AUAAAGCAAUAUUACGUAGA ) is -0.832

# self-splicing fitness (ln) (sequence: AUUGAGCAAUAUUACGCUCA ) is -1.62

# self-splicing fitness (ln) (sequence: CUCGAGCAAUAUUACGGCAA ) is -2.31

# self-splicing fitness (ln) (sequence: CGCAAGCAAUAUUACGGGCU ) is -0.144

---
# self-splicing fitness (ln) (sequence: AUGGAGCAAUAUUACGAAAA ) is -0.761

====

Measured self-splicing fitness (ln) by item
- Method notes: self-splicing fitness, log relative to wild type (ln ratio); higher = more splicing; Tetrahymena group I intron in knt gene, E. coli kanamycin selection, DiMSum; sequences stand for … in CUCUCU…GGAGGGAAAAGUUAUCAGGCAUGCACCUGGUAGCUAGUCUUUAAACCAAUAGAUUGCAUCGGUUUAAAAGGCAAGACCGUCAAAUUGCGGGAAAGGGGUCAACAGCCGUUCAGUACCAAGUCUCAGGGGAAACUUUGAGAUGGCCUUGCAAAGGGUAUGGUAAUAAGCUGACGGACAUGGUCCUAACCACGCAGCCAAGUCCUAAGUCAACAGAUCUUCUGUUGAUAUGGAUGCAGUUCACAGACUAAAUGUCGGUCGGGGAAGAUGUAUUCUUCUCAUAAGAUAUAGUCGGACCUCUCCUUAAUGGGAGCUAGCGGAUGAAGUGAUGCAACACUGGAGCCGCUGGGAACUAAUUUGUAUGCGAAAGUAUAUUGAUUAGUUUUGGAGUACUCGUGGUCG
- Test conditions: 30 °C
Number only, no unit.

The cases that follow already have their self-splicing fitness (ln) on record.
# self-splicing fitness (ln) (sequence: CAACAGCAAUAUUACGGGUA ) is -3.03

# self-splicing fitness (ln) (sequence: UGGCAGCAAUAUUACGUAAG ) is -0.674

# self-splicing fitness (ln) (sequence: GAUGAGCAAUAUUACGAUUU ) is -1.07

---
# self-splicing fitness (ln) (sequence: UUGUAGCAAUAUUACGGUCG ) is -0.458

====

- Method notes: self-splicing fitness, log relative to wild type (ln ratio); higher = more splicing; Tetrahymena group I intron in knt gene, E. coli kanamycin selection, DiMSum; sequences stand for … in CUCUCU…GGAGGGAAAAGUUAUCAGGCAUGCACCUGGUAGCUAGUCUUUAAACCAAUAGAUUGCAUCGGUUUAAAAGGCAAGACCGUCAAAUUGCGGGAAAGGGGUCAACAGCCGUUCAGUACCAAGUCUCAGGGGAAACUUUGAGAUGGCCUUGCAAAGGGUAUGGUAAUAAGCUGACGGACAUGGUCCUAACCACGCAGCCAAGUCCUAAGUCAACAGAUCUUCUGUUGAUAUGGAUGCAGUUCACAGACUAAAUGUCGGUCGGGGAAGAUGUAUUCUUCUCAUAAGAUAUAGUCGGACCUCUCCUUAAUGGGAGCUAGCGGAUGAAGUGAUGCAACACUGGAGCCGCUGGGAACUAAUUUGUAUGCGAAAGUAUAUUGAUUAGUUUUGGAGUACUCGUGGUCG
- Test conditions: 30 °C
Param threshold (-3) applies to self-splicing fitness (ln); output T when value >= threshold, F when value < threshold.

These solved cases illustrate the format of a correct answer.
Could you tell me if the measured self-splicing fitness (ln) of UGGAAGCAAUAUUACGUGGC reaches -3 or more?
F

Could you tell me if the measured self-splicing fitness (ln) of UAAUAGCAAUAUUACGAGUU reaches -3 or more?
T

Could you tell me if the measured self-splicing fitness (ln) of GACAAGCAAUAUUACGUCGA reaches -3 or more?
T

Could you tell me if the measured self-splicing fitness (ln) of AAAAAGCAAUAUUACGCCGA reaches -3 or more?
T

Could you tell me if the measured self-splicing fitness (ln) of GCCGAGCAAUAUUACGCUAU reaches -3 or more?
T

---
Could you tell me if the measured self-splicing fitness (ln) of UCCGAGCAAUAUUACGGCUG reaches -3 or more?
T

Could you tell me if the measured self-splicing fitness (ln) of UCAUAGCAAUAUUACGUGAG reaches -3 or more?
T

Could you tell me if the measured self-splicing fitness (ln) of CUAUAGCAAUAUUACGAGUA reaches -3 or more?
T

Could you tell me if the measured self-splicing fitness (ln) of CACCAGCAAUAUUACGCGUU reaches -3 or more?
T

Could you tell me if the measured self-splicing fitness (ln) of UUGCAGCAAUAUUACGCGCG reaches -3 or more?
T

Could you tell me if the measured self-splicing fitness (ln) of CGAAAGCAAUAUUACGAGGA reaches -3 or more?
F

Could you tell me if the measured self-splicing fitness (ln) of UAUGAGCAAUAUUACGAUAG reaches -3 or more?
T

Could you tell me if the measured self-splicing fitness (ln) of GGACAGCAAUAUUACGGGUA reaches -3 or more?
T

Could you tell me if the measured self-splicing fitness (ln) of AGAUAGCAAUAUUACGAAUA reaches -3 or more?
T

Could you tell me if the measured self-splicing fitness (ln) of CAAAAGCAAUAUUACGUGCG reaches -3 or more?
T

Could you tell me if the measured self-splicing fitness (ln) of UCCAAGCAAUAUUACGUCUC reaches -3 or more?
F

Could you tell me if the measured self-splicing fitness (ln) of CUUCAGCAAUAUUACGUGGG reaches -3 or more?
F

Could you tell me if the measured self-splicing fitness (ln) of UCUGAGCAAUAUUACGCGGC reaches -3 or more?
F

Could you tell me if the measured self-splicing fitness (ln) of CUACAGCAAUAUUACGUCCU reaches -3 or more?
F

====

Measured self-splicing fitness (ln) by item
- Method notes: self-splicing fitness, log relative to wild type (ln ratio); higher = more splicing; Tetrahymena group I intron in knt gene, E. coli kanamycin selection, DiMSum; sequences stand for … in CUCUCU…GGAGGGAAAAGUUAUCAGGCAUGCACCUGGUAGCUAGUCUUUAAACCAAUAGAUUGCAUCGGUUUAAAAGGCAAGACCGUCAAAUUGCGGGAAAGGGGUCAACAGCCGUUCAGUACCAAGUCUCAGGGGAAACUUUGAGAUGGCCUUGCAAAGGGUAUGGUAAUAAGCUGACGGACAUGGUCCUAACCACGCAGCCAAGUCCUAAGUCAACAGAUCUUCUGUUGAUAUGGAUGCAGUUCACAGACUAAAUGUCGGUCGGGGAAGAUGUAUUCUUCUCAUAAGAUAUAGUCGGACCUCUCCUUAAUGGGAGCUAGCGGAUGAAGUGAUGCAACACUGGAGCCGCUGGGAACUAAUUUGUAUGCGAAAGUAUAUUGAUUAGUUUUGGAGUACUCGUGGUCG
- Test conditions: 37 °C
Number only, no unit.

# self-splicing fitness (ln) (sequence: GGCCAGCAAUAUUACGGUCU ) is -2.78

# self-splicing fitness (ln) (sequence: AGUUAGCAAUAUUACGCGGU ) is -1.93

# self-splicing fitness (ln) (sequence: CACGAGCAAUAUUACGUAAU ) is -2

# self-splicing fitness (ln) (sequence: GCGUAGCAAUAUUACGCCUG ) is -3.13

# self-splicing fitness (ln) (sequence: CUAAAGCAAUAUUACGCCGA ) is -2.42

# self-splicing fitness (ln) (sequence: CUCAAGCAAUAUUACGUUGU ) is -2.89

# self-splicing fitness (ln) (sequence: GGUGAGCAAUAUUACGGUCA ) is -1.79

---
# self-splicing fitness (ln) (sequence: CCGUAGCAAUAUUACGGUCG ) is -0.447
